molecular target: AChE from Electrophorus electricus (Electrophorus electricus, UniProt O42275); construct: purchased Sigma (St. Louis, MO, USA); assay: biochemical; details: Ellman's method
Sequence (O42275 24-633): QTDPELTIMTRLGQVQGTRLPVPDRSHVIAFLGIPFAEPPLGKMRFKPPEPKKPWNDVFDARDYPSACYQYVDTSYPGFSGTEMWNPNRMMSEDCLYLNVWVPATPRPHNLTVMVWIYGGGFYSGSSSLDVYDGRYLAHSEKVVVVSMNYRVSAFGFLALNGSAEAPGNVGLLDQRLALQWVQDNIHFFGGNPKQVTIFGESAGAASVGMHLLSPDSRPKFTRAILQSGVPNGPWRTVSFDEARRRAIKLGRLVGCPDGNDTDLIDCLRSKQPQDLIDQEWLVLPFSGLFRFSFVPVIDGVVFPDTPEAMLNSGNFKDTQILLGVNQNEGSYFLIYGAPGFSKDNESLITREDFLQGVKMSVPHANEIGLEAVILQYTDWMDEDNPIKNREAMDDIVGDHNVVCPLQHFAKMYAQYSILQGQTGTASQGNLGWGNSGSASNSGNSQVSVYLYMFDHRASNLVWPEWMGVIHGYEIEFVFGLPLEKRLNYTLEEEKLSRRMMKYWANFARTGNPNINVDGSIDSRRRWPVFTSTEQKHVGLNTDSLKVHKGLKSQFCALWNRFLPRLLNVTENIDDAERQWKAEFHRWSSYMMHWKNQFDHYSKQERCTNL
readout: IC50 in the AChEI assay

molecule="Nc1ncnc2c1ncn2[C@@H]1O[C@H](CO)[C@@H](O)[C@H]1O [Adenosine (15), adenosine]" assay_value=inactive
molecule="O=Cc1ccc(CO)o1 [5-(Hydroxymethyl)-2-furaldehyde (7), 5-(hydroxymethyl)-2-furaldehyde]" assay_value=inactive
molecule="CC1(C)CC[C@]2(C)CC[C@]3(C)C(=CC[C@@H]4[C@@]5(C)CC[C@H](O)C(C)(C)[C@@H]5CC[C@]43C)[C@@H]2C1 [β-Amyrin (2), β-amyrin]" assay_value=inactive
